ASSAY METHOD TEXT: Metabolic stability in human liver microsomes
APPLIED CONDITIONS: hepatic in vivo blood clearance calculated with well stirred liver model; 1 µM compound; '(stable)' given beside < 0.01
CLblood, human microsomes under 0.3 L/h/kg gets yes (1), anything at or over 0.3 L/h/kg gets no (0).

>  <COMPOUND>
CC(C)(O)C1CCN(c2nc(N[C@@H]3CCOC3)nc3c2cnn3-c2cccc(C(F)(F)F)c2)CC1 [Example I-16-2]

>  <ASSIGNED LABEL>
no (0)

$$$$
>  <COMPOUND>
CC(C)(O)CC1CN(c2nc(N[C@@H]3CNC(=O)C3)nc3c2cnn3-c2cccc(C(F)(F)F)c2)C1 [Example I-49]

>  <ASSIGNED LABEL>
yes (1)

$$$$
>  <COMPOUND>
CS(=O)(=O)[C@H]1C[C@H](Nc2nc(N3CC[C@@H](O)C3)c3cnn(-c4cccc(C(F)F)c4)c3n2)C1 [II-34]

>  <ASSIGNED LABEL>
yes (1)

$$$$
>  <COMPOUND>
O[C@H]1C[C@@H](Nc2nc(N3CC(N4CCOCC4)C3)c3cnn(-c4cccc(C(F)(F)F)c4)c3n2)C1 [Example I-72]

>  <ASSIGNED LABEL>
yes (1)

$$$$
>  <COMPOUND>
CC(C)(N)C1CCN(c2nc(NC3CCS(=O)(=O)CC3)nc3c2cnn3-c2cccc(C(F)(F)F)c2)CC1 [Example I-46]

>  <ASSIGNED LABEL>
yes (1)

$$$$
>  <COMPOUND>
O[C@@H]1CN(c2nc(N[C@H]3C[C@H](O)C3)nc3c2cnn3-c2cccc(C(F)(F)F)c2)C[C@H]1O [Example I-101]

>  <ASSIGNED LABEL>
no (0)

$$$$

All figures here come from patent EP3800188A1.
